A collection of molecules and their measured GI50
Test system: Malme-3M
test: NCI tumour cell line growth inhibition, 48 h
Activity calls are given as the source filed them. Cut-off read from the data, not from the text of the source: active = GI50 up to about 1.1 µM and inactive = higher.
assayMetric: GI50

1. N=C(N)NCCCS(=O)(=O)Nc1ccc(Nc2c3ccccc3nc3cc([N+](=O)[O-])ccc23)cc1: 10.1 µM (inactive)
2. COc1ccc(OC)c(/C=N/N=C(\N)NO)c1: 36.8 µM (inactive)
3. Oc1nc(-c2ccccc2)cc(-c2ccccc2O)n1: > 100 µM (inactive)
4. COc1cc2ncnc(Nc3cccc(Br)c3)c2cc1OC: 7.36 µM (inactive)
5. CCc1cccc(C)c1NC(=O)C(=O)Cc1nc2ccccc2s1: > 100 µM (inactive)
6. CCCN(CCC)c1c([N+](=O)[O-])cc(C(=O)N(C)C)cc1[N+](=O)[O-]: 52.6 µM (inactive)
7. COc1ccc(NC(=S)NNC(=O)c2cc(-c3ccccc3)nc3ccccc23)cc1: 11.2 µM (inactive)
8. CCOC(=O)CNC(=O)C(CSCC1C(=O)Nc2ccccc21)NC(=O)CCC(N)C(=O)OCC (stereo not drawn): 1.88 µM (inactive)
9. CC1=NN(c2nc(N)nc(/C(C#N)=C\c3ccc(-c4ccc([N+](=O)[O-])cc4)o3)n2)C(C)(C)C1: > 100 µM (inactive)
10. CCCOC(=O)c1cc(O)c(O)c(O)c1 [PROPYL GALLATE]: 74.6 µM (inactive)
11. O=C(Nc1ccccc1)c1cc(S(=O)(=O)N2CCNNC2=O)c(S)cc1Cl: 56.1 µM (inactive)
12. Cc1cc(=O)oc2cc(OC(=O)N(C)C)c(Cl)cc12: 84.3 µM (inactive)
13. Cc1cccc(/N=N/c2ccc(/N=N/c3c(O)ccc4ccccc34)cc2C)c1: 2 µM (inactive)
14. N#Cc1nc(-c2ccc(-c3nc(C#N)c(N)o3)cc2)oc1N: > 10 µM (inactive)
15. CC(=O)n1nc(-c2ccc3ccccc3c2)nc1C: > 100 µM (inactive)
16. CCc1n[nH]c(=O)n1/N=C(\C)c1ccccc1: > 100 µM (inactive)
17. CN1C(C(=O)Nc2ccccn2)=C(O)c2ccccc2S1(=O)=O: > 100 µM (inactive)
18. COc1ccc2[nH]c(Cl)c(/C=C3/C(=O)Nc4cc(C)c(OC)cc43)c2c1: 5.82 µM (inactive)

----------
System: A549
test: NCI tumour cell line growth inhibition, 48 h
Calls of active or inactive are those of the source. Cut-off read from the data, not from the text of the source: active = GI50 up to about 1.1 µM and inactive = higher.
A collection of compounds and their measured GI50
assayMetric: GI50

1) c1ccc2c(c1)[n-]n1c3ccc4nonc4c3n[n+]21: > 100 µM (inactive)
2) Cc1ccc(C(=O)N(Cc2ccccc2)Cc2ccccc2)cc1/N=N/N(C)C: 17.5 µM (inactive)
3) C=C(C)c1nc(C#N)c(N)o1: > 100 µM (inactive)
4) COc1ccc(C2C(N)=NCC2c2ccccn2)cc1 (stereo not given): > 100 µM (inactive)
5) CC(C)(C)NC(=S)N/N=C/c1ccccn1: 2.13 µM (inactive)

----------
Tested on: PC-3
test: NCI tumour cell line growth inhibition, 48 h
Active and inactive are the calls of the source. Rule as the data show it: active = GI50 up to about 1.1 µM and inactive = higher.
A collection of compounds and their measured GI50
assayMetric: GI50

1) COC1OC(Cn2c(C)nc(Br)c2Br)C(O)C(O)C1O (stereo unspecified): > 100 µM (inactive)
2) O=C(Nc1ccccc1)c1cc(S(=O)(=O)N2CCNNC2=O)c(S)cc1Cl: > 100 µM (inactive)
3) N#CCCC1C(C#N)C2CC1C1C3C=CC(C3)C21 (stereo unspecified): > 100 µM (inactive)
4) Nc1cc(CO)cc(Nc2c3ccccc3nc3ccccc23)c1: 15.5 µM (inactive)
5) COc1cc2c3cc1Oc1c(OC)c(OC)cc4c1C(=NCC4)Cc1ccc(cc1)Oc1cc(ccc1O)C[C@H]3N(C)CC2: 13.2 µM (inactive)
6) Cn1c2c3ccccc3nc-2c(O)c2ccccc21 [HYDROXYCRYPTOLEPINE]: > 100 µM (inactive)

----------
Test system: IGROV-1
test: NCI tumour cell line growth inhibition, 48 h
Active and inactive are the calls of the source. Rule as the data show it: active = GI50 up to about 1.1 µM and inactive = higher.
Possible outcomes: active, inactive

1) COc1ccc(OC)c(/C=N/N=C(\N)NO)c1: inactive
2) CCC1(O)C(=O)OCc2c1cc1n(c2=O)Cc2cc3ccccc3nc2-1 (configuration not stated): active
3) CC(=O)Oc1c2ccsc2c(OC(C)=O)c2ccsc12: inactive
4) O=C(CC1(O)C(=O)Nc2ccccc21)c1cccc(O)c1 (configuration not stated): inactive
5) N=C(N)N1CCC(N2CCOCC2)CC1: inactive
6) CCN(CC)C(=S)SC(C(=O)Nc1nnc(-c2ccc(Cl)cc2)o1)c1ccccc1 (configuration not stated): inactive
7) O=C1c2cccc3cc([N+](=O)[O-])cc(c23)C(=O)N1CCNCCNCCNCCN1C(=O)c2cccc3cc([N+](=O)[O-])cc(c23)C1=O: active

----------
Tested on: SK-MEL-2
test: NCI tumour cell line growth inhibition, 48 h
Active and inactive are the calls of the source. Cut-off read from the data, not from the text of the source: active = GI50 up to about 1.1 µM and inactive = higher.
assayMetric: GI50

1) CC(=O)n1nc(-c2ccc3ccccc3c2)nc1C: > 100 µM (inactive)
2) Cc1ccc(C)c(NC(=O)C(=O)Nn2c(S)nc3ccccc3c2=O)c1: > 100 µM (inactive)
3) C=CC[C@H](O)[C@@](NC(=O)OCc1ccccc1)(Sc1ccc(C)cc1)C(F)(F)F: 26.8 µM (inactive)
4) C#C[C@]1(O)CC[C@H]2[C@@H]3CCC4=C/C(=N\OCCN5CCCC5)CC[C@]4(C)[C@H]3CC[C@@]21C: 9.18 µM (inactive)

----------
Tested on: CCRF-CEM
test: NCI tumour cell line growth inhibition, 48 h
Active and inactive are the calls of the source. No stated cut-off is given here; in the data, active = GI50 up to about 1.1 µM and inactive = higher.
A collection of compounds and their measured GI50
assayMetric: GI50

1. COc1c2c(cc3occ(-c4ccc(CC=C(C)C)cc4)c(=O)c13)OC(C)(C)C=C2: 12.8 µM (inactive)
2. COc1ccc(NC(=S)NNC(=O)c2cc(-c3ccccc3)nc3ccccc23)cc1: 12.9 µM (inactive)
3. CC(O)C(NC(=O)c1ccccc1)C(=O)N(Cc1ccccc1)Cc1ccccc1 (configuration not stated): > 100 µM (inactive)
4. O=C(O)c1c(-c2nccc3ccccc23)[nH]c(-c2ccccc2)c1S(=O)(=O)O: > 100 µM (inactive)
5. CN(C)C(=S)/N=c1\ssc(=S)n1Cc1ccccn1: 10.7 µM (inactive)
6. Cc1ccccc1-n1c(=O)c2ncn(C3CCCO3)c2n(-c2ccccc2C)c1=S (configuration not stated): > 100 µM (inactive)
7. CC(C)(C)c1ccc(OCCOCCOc2ccc(C(C)(C)C)cc2S(=O)(=O)Nc2ccc([N+](=O)[O-])cc2)c(S(=O)(=O)Nc2ccc([N+](=O)[O-])cc2)c1: 5.42 µM (inactive)

----------
System: ACHN
test: NCI tumour cell line growth inhibition, 48 h
Calls of active or inactive are those of the source. Rule as the data show it: active = GI50 up to about 1.1 µM and inactive = higher.
assayMetric: GI50

1. Nc1c(S(=O)(=O)O)cc(Nc2cccc(S(=O)(=O)/C=C/S(=O)(=O)O)c2)c2c1C(=O)c1ccccc1C2=O: > 100 µM (inactive)
2. O=C(Nc1ccccc1)c1cc(S(=O)(=O)N2CCNNC2=O)c(S)cc1Cl: > 100 µM (inactive)
3. Cc1ccc(C(=O)N(Cc2ccccc2)Cc2ccccc2)cc1/N=N/N(C)C: 7.01 µM (inactive)
4. COc1ccc(/C=C/c2cc(=O)cc(/C=C/c3ccc(OC)c(O)c3)o2)cc1O: 2.48 µM (inactive)
5. CCNC(=O)O/N=C1\CCC2[C@@H]3CC=C4C[C@@H](OC(=O)NCC)CC[C@]4(C)C3CC[C@]12C (stereo not given in full): 1.38 µM (inactive)

----------
Test system: COLO 205
test: NCI tumour cell line growth inhibition, 48 h
Active and inactive are the calls of the source. No stated cut-off is given here; in the data, active = GI50 up to about 1.1 µM and inactive = higher.
Possible outcomes: active, inactive

1. CCOC(=O)C1=C(C)NC(C)=C(C(=O)OCC)C1c1ccc(Cl)cc1: inactive
2. CC(=O)n1nc(-c2ccc3ccccc3c2)nc1C: inactive
3. CCCCCCCCCCCCCCCC/C(C(=O)OC)=C(/O)C(=O)OCC: inactive
4. CN(C)c1ccc(/C=N/c2ccc(Oc3ccc(Cl)cc3)c(Cl)c2)cc1: inactive
5. O=C(CC1(O)C(=O)Nc2ccccc21)c1cccc(O)c1 (stereo not drawn): inactive
6. CCCCCCN(CCCCCC)C(=S)N/N=C(\C)c1ccccn1: active
7. CC[C@]12C=CCN3CC[C@@]4(c5cc(N=O)c(OC)cc5N(C)[C@H]4[C@@](O)(C(=O)OC)[C@@H]1OC(C)=O)[C@@H]32: inactive
8. C/C=C\C(CC(=O)NCCc1cn(C(=O)OCc2ccccc2)c2ccccc12)CC(=O)OC (stereo not drawn): inactive
9. N#Cc1nc(-c2ccc(-c3nc(C#N)c(N)o3)cc2)oc1N: inactive
10. CCCOC(=O)c1cc(O)c(O)c(O)c1 [PROPYL GALLATE]: inactive
11. O=C1c2cccc3cccc(c23)C(=O)N1CCCNCCCNCCCCNCCCNCCCN1C(=O)c2cccc3cccc(c23)C1=O: inactive
12. CC(CCC[C@H](C)CO)[C@H]1[C@@H](O)C(O)C2[C@@H]3C[C@@H](O)C4(O)C[C@@H](O)CC[C@]4(C)C3CC[C@@]21C (stereo partly drawn): inactive
13. CO/N=C(/C(=O)OC)c1ccccc1COc1ccccc1C(F)(F)F: inactive
14. O=C(O)c1c(-c2nccc3ccccc23)[nH]c(-c2ccccc2)c1S(=O)(=O)O: inactive
15. CN1CC[C@]23c4c5ccc(O)c4OC2c2[nH]ncc2C[C@H]3[C@H]1C5 (stereo partly drawn): inactive
16. O=C(CCCNC(=O)OCc1ccccc1)OCc1ccc2c(c1)C(=O)c1ccccc1C2=O: inactive
17. O=C1c2cccc3cc([N+](=O)[O-])cc(c23)C(=O)N1CCNCCNCCNCCN1C(=O)c2cccc3cc([N+](=O)[O-])cc(c23)C1=O: active
18. C(CCC[Te][Te]CCCCCCOC1CCCCO1)CCOC1CCCCO1 (stereo not drawn): inactive
